Origin of measurements: patent US20240150300A1

tested-on: HDAC8 (Homo sapiens (Human))
Sequence (Q9BY41 whole entry): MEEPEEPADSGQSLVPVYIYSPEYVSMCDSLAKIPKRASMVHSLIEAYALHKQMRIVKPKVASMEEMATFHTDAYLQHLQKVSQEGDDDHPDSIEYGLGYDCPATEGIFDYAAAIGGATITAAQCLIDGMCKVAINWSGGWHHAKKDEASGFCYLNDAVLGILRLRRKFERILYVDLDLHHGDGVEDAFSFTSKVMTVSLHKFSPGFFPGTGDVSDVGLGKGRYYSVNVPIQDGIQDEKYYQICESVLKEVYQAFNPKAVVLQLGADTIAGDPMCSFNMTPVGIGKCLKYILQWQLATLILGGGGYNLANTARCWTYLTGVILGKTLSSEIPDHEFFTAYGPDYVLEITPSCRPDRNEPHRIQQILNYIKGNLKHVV
test-protocol: HDAC subtype inhibitory activity (HTRF), HDAC8
Format: biochemical
pIC50: −log10 of the molar value.
Record form. Attribute: pIC50. Fill in for each entry.

1. C[C@H](c1ccc(C(=O)Nc2ccc(F)cc2N)cc1)n1nc(-c2ccc(CN(C)C)cc2)ccc1=O [I-1 (R configuration), reference compound] ... < 4.00

Measured pIC50, "C[C@@H](c1ccc(C(=O)Nc2ccccc2N)cc1)n1nc(-c2ccc(CN(C)C)cc2)ccc1=O" : < 4.00

====

Test system: HDLM-2
test-protocol: Antiproliferative activity, CCK-8, HDLM-2
Format: cell-based
protocol-conditions: HDLM-2, Hodgkin's lymphoma; read-out: Cytotoxicity (IC50 μM)
observed-property: IC50 (µM)
Numbers only, in µM.

Measured IC50, C[C@@H](c1ccc(C(=O)Nc2ccc(F)cc2N)cc1)n1nc(-c2ccc(CN(C)C)cc2)ccc1=O [Compound I-1] : 0.647

====

Test system: OPM-2
test-protocol: Antiproliferative activity, CCK-8, OPM-2
Assay type: cell-based
protocol-conditions: OPM-2, Human multiple myeloid leukemia; read-out: Cytotoxicity (IC50 μM)
observed-property: IC50 (µM)
Numbers only, in µM.

Measured IC50, "C[C@@H](c1ccc(C(=O)Nc2ccc(F)cc2N)cc1)n1nc(-c2ccc(CN(C)C)cc2)ccc1=O" : 0.436

====

System: OCI-LY-3
test-protocol: Antiproliferative activity, CCK-8, OCI-LY-3
Assay type: cell-based
protocol-conditions: OCI-LY-3, Diffuse large B-cell lymphoma; read-out: Cytotoxicity (IC50 μM)
observed-property: IC50
Returns: string containing the number followed by the unit.

Measured IC50, "C[C@@H](c1ccc(C(=O)Nc2ccc(F)cc2N)cc1)n1nc(-c2ccc(CN(C)C)cc2)ccc1=O" : 0.198 µM

====

tested-on: HDAC6 (Homo sapiens (Human))
Sequence (Q9UBN7 whole entry): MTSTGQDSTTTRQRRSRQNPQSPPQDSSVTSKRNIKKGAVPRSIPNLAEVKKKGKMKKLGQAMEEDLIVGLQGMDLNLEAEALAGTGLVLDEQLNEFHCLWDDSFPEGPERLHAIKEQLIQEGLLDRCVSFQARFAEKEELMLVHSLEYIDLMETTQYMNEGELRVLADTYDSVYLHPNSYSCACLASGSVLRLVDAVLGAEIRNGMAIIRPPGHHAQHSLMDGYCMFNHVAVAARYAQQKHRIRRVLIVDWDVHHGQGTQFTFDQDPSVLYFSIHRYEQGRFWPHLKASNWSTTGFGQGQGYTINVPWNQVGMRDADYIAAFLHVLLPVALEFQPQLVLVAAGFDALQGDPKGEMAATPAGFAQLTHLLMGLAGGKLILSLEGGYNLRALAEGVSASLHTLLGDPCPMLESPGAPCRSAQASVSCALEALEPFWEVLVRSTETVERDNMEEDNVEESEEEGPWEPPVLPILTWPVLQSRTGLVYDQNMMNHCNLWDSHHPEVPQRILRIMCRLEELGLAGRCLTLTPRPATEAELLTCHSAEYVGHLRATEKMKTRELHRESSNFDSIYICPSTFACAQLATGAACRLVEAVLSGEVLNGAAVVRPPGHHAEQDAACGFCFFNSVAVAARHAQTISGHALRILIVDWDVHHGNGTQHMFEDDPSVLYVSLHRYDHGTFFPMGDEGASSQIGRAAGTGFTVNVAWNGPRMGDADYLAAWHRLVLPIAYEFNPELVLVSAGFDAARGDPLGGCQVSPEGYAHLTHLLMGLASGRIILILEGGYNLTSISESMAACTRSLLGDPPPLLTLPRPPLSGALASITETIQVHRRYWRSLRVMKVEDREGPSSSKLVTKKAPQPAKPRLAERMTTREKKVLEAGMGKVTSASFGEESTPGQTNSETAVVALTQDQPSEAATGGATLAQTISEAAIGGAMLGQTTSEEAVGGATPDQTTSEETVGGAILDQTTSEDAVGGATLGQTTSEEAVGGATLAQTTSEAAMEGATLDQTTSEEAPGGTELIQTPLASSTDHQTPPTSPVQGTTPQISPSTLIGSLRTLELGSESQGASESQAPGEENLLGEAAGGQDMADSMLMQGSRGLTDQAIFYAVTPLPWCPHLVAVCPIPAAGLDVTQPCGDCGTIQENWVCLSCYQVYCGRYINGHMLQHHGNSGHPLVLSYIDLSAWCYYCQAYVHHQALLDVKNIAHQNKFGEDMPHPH
pIC50: −log10 of the molar value.
observed-property: pIC50

Hi, could you look up pIC50 for each item in my list?
1. C[C@H](c1ccc(C(=O)Nc2ccc(F)cc2N)cc1)n1nc(-c2ccc(CN(C)C)cc2)ccc1=O [I-1 (R configuration), reference compound]
2. C[C@@H](c1ccc(C(=O)Nc2cccc(F)c2N)cc1)n1nc(-c2ccc(CN(C)C)cc2)ccc1=O
3. C[C@@H](c1ccc(C(=O)Nc2ccc(F)cc2N)cc1)n1nc(-c2ccc(CN(C)C)cc2)ccc1=O
4. COc1cccc(-c2ccc(=O)n([C@@H](C)c3ccc(C(=O)Nc4ccccc4N)cc3)n2)c1
5. C[C@@H](c1ccc(C(=O)Nc2ccccc2N)cc1)n1nc(-c2ccncc2)ccc1=O
6. Cc1ccc(N)c(NC(=O)c2ccc([C@H](C)n3nc(-c4ccc(CN(C)C)cc4)ccc3=O)cc2)c1

1: < 5.00; 2: < 5.00; 3: < 5.00; 4: < 5.00; 5: < 5.00; 6: < 5.00

Measured pIC50, "C[C@@H](c1ccc(C(=O)Nc2ccccc2N)cc1)n1nc(-c2ccc(CN(C)C)cc2)ccc1=O" : < 5.00

====

Record form. Attribute: pIC50. Fill in for each entry.
Tested on: SKM-1 cells
test-protocol: Antiproliferative activity, CCK-8, SKM-1
Type: cell-based, human
protocol-conditions: Homo sapiens, SKM-1, 72 h
One number for each entry, as −log10 of the molar value.

Hi, could you look up pIC50 for each item in my list?
1. Nc1ccccc1NC(=O)c1ccc(CNC(=O)OCc2cccnc2)cc1 [MS-275, Entinostat, reference compound]
2. C[C@@H](c1ccc(C(=O)Nc2ccccc2N)cc1)n1nc(-c2cnn(C)c2)ccc1=O
3. COc1ccc(NC(=O)c2ccc([C@H](C)n3nc(-c4ccc(CN(C)C)cc4)ccc3=O)cc2)c(N)c1
4. C[C@@H](c1ccc(C(=O)Nc2ccccc2N)cc1)n1nc(-c2ccncc2)ccc1=O
5. C[C@@H](c1ccc(C(=O)Nc2ccccc2N)cc1)n1nc(-c2ccc(CN(C)C)cc2)ccc1=O
6. C[C@@H](c1ccc(C(=O)Nc2cccc(F)c2N)cc1)n1nc(-c2ccc(CN(C)C)cc2)ccc1=O
7. Nc1cc(F)ccc1NC(=O)c1ccc(CNC(=O)/C=C/c2cccnc2)cc1 [Chidamide, reference compound]

[6.41, 6.70, 6.31, 6.62, 7.22, 6.47, 6.26]

====

System: SU-DHL-8
test-protocol: Antiproliferative activity, CCK-8, SU-DHL-8
Format: cell-based
protocol-conditions: SU-DHL-8, Diffuse large B-cell lymphoma; read-out: Cytotoxicity (IC50 μM)
observed-property: IC50 (µM)
Answers are plain numbers, in µM.

Measured IC50, "C[C@@H](c1ccc(C(=O)Nc2ccc(F)cc2N)cc1)n1nc(-c2ccc(CN(C)C)cc2)ccc1=O" : 0.443

====

System: U937
test-protocol: Antiproliferative activity, CCK-8, U937
Assay type: cell-based
protocol-conditions: U937, Human tissue cell lymphoma; read-out: Cytotoxicity (IC50 μM)
observed-property: IC50 (µM)
One number for each entry, in µM.

Measured IC50, "C[C@@H](c1ccc(C(=O)Nc2ccc(F)cc2N)cc1)n1nc(-c2ccc(CN(C)C)cc2)ccc1=O" : 0.435

====

System: HuT78
test-protocol: Antiproliferative activity, CCK-8, HuT78
Assay type: cell-based
protocol-conditions: HuT78, Human T-lymphocytic leukemia; read-out: Cytotoxicity (IC50 μM)
observed-property: IC50

Measured IC50, C[C@@H](c1ccc(C(=O)Nc2ccc(F)cc2N)cc1)n1nc(-c2ccc(CN(C)C)cc2)ccc1=O [Compound I-1] : 0.769 µM

====

System: NOMO-1
test-protocol: Antiproliferative activity, CCK-8, NOMO-1
Type: cell-based
protocol-conditions: NOMO-1, Acute monocytic leukemia; read-out: Cytotoxicity (IC50 μM)
observed-property: IC50 (µM)
Answers are plain numbers, in µM.

Lab note: molecule "C[C@@H](c1ccc(C(=O)Nc2ccc(F)cc2N)cc1)n1nc(-c2ccc(CN(C)C)cc2)ccc1=O" tested on NOMO-1; recorded IC50 was 0.523

====

Tested on: SNU-16
test-protocol: Antiproliferative activity, CCK-8, SNU-16
Format: cell-based
protocol-conditions: SNU-16, gastric cancer; read-out: Cytotoxicity (IC50 μM)
observed-property: IC50
Returns: string containing the number followed by the unit.

Measured IC50, "C[C@@H](c1ccc(C(=O)Nc2ccc(F)cc2N)cc1)n1nc(-c2ccc(CN(C)C)cc2)ccc1=O" : 0.675 µM

====

Tested on: KG-1
test-protocol: Antiproliferative activity, CCK-8, KG-1
Assay type: cell-based
protocol-conditions: KG-1, Acute myeloid leukemia; read-out: Cytotoxicity (IC50 μM)
observed-property: IC50
Returns: string containing the number followed by the unit.

Lab note: compound "C[C@@H](c1ccc(C(=O)Nc2ccc(F)cc2N)cc1)n1nc(-c2ccc(CN(C)C)cc2)ccc1=O" tested on KG-1; recorded IC50 was 0.95 µM

====

Test system: SKM-1 cells
test-protocol: Antiproliferative activity, CCK-8, SKM-1
Type: cell-based, human
protocol-conditions: Homo sapiens, SKM-1, 72 h
observed-property: IC50
Returns: string containing the number followed by the unit.

Would you please look over these solved cases?
1. C[C@@H](c1ccc(C(=O)Nc2cc(F)ccc2N)cc1)n1nc(-c2ccc(CN(C)C)cc2)ccc1=O ... 0.1 µM
2. C[C@@H](c1ccc(C(=O)Nc2ccccc2N)cc1)n1nc(-c2cccc(Cl)c2)ccc1=O ... 0.27 µM

Hi, could you look up IC50 for each item in my list?
1. C[C@@H](c1ccc(C(=O)Nc2cc(F)c(F)cc2N)cc1)n1nc(-c2ccc(CN(C)C)cc2)ccc1=O
2. CC(c1ccc(C(=O)Nc2ccc(F)cc2N)cc1)n1nc(-c2ccc(CN(C)C)cc2)ccc1=O (racemic) [HYH-073 (racemate of I-1), reference compound]
3. CC(c1ccc(C(=O)Nc2ccccc2N)cc1)n1nc(-c2ccc(CN(C)C)cc2)ccc1=O (racemic) [HYH-072 (racemate of I-2), reference compound]

1. 0.21 µM
2. 0.23 µM
3. 0.09 µM

Measured IC50, "COc1cccc(-c2ccc(=O)n([C@@H](C)c3ccc(C(=O)Nc4ccccc4N)cc3)n2)c1" : 0.16 µM

====

System: MO-91
test-protocol: Antiproliferative activity, CCK-8, MO-91
Assay type: cell-based
protocol-conditions: MO-91, Acute myeloid leukemia; read-out: Cytotoxicity (IC50 μM)
observed-property: IC50 (µM)
Give bare numbers, in µM.

Lab note: compound C[C@@H](c1ccc(C(=O)Nc2ccc(F)cc2N)cc1)n1nc(-c2ccc(CN(C)C)cc2)ccc1=O [Compound I-1] tested on MO-91; recorded IC50 was 0.427

====

System: Z138
test-protocol: Antiproliferative activity, CCK-8, Z138
Assay type: cell-based
protocol-conditions: Z138, Human mantle cell lymphoma; read-out: Cytotoxicity (IC50 μM)
Method: The tumor cells used were purchased from commercial cell banks (HCT116 purchased from ATCC, SKM 1 purchased from JCRB). The growth inhibition of cells was detected using the CCK-8 method. The specific steps were as follows. […] After the treatment, 10 μL of CCK-8 was added to each well and the plate was incubated in an incubator for 2-4 hours, and the optical density (OD value) at a wavelength of 450 nm was measured using a SpectraMax 190 microplate reader. […]
observed-property: IC50 (µM)
Numbers only, in µM.

Lab note: compound "C[C@@H](c1ccc(C(=O)Nc2ccc(F)cc2N)cc1)n1nc(-c2ccc(CN(C)C)cc2)ccc1=O" tested on Z138; recorded IC50 was 0.363
